- Tested on: LXRb homodimer (NR concentration 270 nM)
- Assay summary: PBM binding z-score (relative to random genomic background probes); higher = stronger binding; sequences stand for … in GC…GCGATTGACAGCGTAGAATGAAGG
Returns one of yes or no; yes when PBM binding z-score is >= -0.4.

INSERT INTO measurements (seq, experimental_target, category_label) VALUES
  ('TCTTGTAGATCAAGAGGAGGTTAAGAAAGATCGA', 'LXRb homodimer (NR concentration 270 nM)', 'no'),
  ('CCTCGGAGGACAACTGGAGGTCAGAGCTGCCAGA', 'LXRb homodimer (NR concentration 270 nM)', 'yes'),
  ('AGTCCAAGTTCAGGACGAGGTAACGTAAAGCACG', 'LXRb homodimer (NR concentration 270 nM)', 'no'),
  ('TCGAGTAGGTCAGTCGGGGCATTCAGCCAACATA', 'LXRb homodimer (NR concentration 270 nM)', 'no'),
  ('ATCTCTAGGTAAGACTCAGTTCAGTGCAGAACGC', 'LXRb homodimer (NR concentration 270 nM)', 'yes'),
  ('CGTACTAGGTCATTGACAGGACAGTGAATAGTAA', 'LXRb homodimer (NR concentration 270 nM)', 'yes'),
  ('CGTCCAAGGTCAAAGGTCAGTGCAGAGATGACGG', 'LXRb homodimer (NR concentration 270 nM)', 'yes'),
  ('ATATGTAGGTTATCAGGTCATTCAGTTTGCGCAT', 'LXRb homodimer (NR concentration 270 nM)', 'yes'),
  ('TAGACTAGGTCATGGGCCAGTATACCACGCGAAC', 'LXRb homodimer (NR concentration 270 nM)', 'yes'),
  ('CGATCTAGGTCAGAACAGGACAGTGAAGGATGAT', 'LXRb homodimer (NR concentration 270 nM)', 'yes'),
  ('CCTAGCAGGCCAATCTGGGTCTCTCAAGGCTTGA', 'LXRb homodimer (NR concentration 270 nM)', 'no'),
  ('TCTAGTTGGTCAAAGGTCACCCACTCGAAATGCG', 'LXRb homodimer (NR concentration 270 nM)', 'yes'),
  ('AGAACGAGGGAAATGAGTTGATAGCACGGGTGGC', 'LXRb homodimer (NR concentration 270 nM)', 'no'),
  ('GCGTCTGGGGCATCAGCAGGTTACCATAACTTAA', 'LXRb homodimer (NR concentration 270 nM)', 'no'),
  ('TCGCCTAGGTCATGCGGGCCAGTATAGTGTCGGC', 'LXRb homodimer (NR concentration 270 nM)', 'no'),
  ('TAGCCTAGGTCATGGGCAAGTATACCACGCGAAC', 'LXRb homodimer (NR concentration 270 nM)', 'yes'),
  ('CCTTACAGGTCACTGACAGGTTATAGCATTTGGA', 'LXRb homodimer (NR concentration 270 nM)', 'yes'),
  ('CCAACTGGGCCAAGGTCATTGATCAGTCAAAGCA', 'LXRb homodimer (NR concentration 270 nM)', 'no'),
  ('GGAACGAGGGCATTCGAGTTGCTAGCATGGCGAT', 'LXRb homodimer (NR concentration 270 nM)', 'no'),
  ('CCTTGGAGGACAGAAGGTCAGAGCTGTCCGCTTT', 'LXRb homodimer (NR concentration 270 nM)', 'no'),
  ('TCAGAAAGGTGAAGGTAACTCAGGTACGCAGTCG', 'LXRb homodimer (NR concentration 270 nM)', 'yes'),
  ('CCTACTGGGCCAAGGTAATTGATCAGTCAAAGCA', 'LXRb homodimer (NR concentration 270 nM)', 'no'),
  ('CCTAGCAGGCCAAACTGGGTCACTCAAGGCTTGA', 'LXRb homodimer (NR concentration 270 nM)', 'no'),
  ('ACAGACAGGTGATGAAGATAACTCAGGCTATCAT', 'LXRb homodimer (NR concentration 270 nM)', 'yes'),
  ('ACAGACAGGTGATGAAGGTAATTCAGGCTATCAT', 'LXRb homodimer (NR concentration 270 nM)', 'yes'),
  ('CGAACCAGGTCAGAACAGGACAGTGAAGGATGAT', 'LXRb homodimer (NR concentration 270 nM)', 'yes'),
  ('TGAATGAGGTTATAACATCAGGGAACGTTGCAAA', 'LXRb homodimer (NR concentration 270 nM)', 'no'),
  ('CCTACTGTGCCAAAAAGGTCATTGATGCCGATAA', 'LXRb homodimer (NR concentration 270 nM)', 'yes'),
  ('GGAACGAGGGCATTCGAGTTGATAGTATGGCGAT', 'LXRb homodimer (NR concentration 270 nM)', 'no'),
  ('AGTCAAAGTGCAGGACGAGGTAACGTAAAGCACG', 'LXRb homodimer (NR concentration 270 nM)', 'no'),
  ('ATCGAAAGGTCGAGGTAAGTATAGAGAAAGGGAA', 'LXRb homodimer (NR concentration 270 nM)', 'yes'),
  ('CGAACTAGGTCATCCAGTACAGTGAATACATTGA', 'LXRb homodimer (NR concentration 270 nM)', 'yes'),
  ('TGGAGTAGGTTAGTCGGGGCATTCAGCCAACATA', 'LXRb homodimer (NR concentration 270 nM)', 'yes'),
  ('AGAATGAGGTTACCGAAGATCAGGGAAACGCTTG', 'LXRb homodimer (NR concentration 270 nM)', 'no'),
  ('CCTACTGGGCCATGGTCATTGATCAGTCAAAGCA', 'LXRb homodimer (NR concentration 270 nM)', 'no'),
  ('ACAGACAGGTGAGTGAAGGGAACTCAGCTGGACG', 'LXRb homodimer (NR concentration 270 nM)', 'yes'),
  ('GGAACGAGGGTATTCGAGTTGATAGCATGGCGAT', 'LXRb homodimer (NR concentration 270 nM)', 'no'),
  ('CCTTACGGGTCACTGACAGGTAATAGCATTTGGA', 'LXRb homodimer (NR concentration 270 nM)', 'yes'),
  ('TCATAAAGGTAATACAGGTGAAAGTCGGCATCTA', 'LXRb homodimer (NR concentration 270 nM)', 'yes'),
  ('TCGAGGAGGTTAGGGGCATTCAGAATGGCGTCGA', 'LXRb homodimer (NR concentration 270 nM)', 'yes'),
  ('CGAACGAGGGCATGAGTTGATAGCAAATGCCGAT', 'LXRb homodimer (NR concentration 270 nM)', 'no'),
  ('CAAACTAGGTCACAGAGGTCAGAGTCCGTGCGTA', 'LXRb homodimer (NR concentration 270 nM)', 'yes'),
  ('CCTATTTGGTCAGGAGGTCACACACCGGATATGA', 'LXRb homodimer (NR concentration 270 nM)', 'yes'),
  ('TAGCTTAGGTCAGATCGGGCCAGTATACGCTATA', 'LXRb homodimer (NR concentration 270 nM)', 'yes'),
  ('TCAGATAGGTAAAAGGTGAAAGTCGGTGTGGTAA', 'LXRb homodimer (NR concentration 270 nM)', 'yes'),
  ('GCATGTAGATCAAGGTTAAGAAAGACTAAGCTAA', 'LXRb homodimer (NR concentration 270 nM)', 'no');

* * *

- System: RARb:RXRa (NR concentration 270 nM, RXRa partner concentration 90 nM)
- Assay summary: PBM binding z-score (relative to random genomic background probes); higher = stronger binding; sequences stand for … in GC…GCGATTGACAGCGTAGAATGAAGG
Listed here: items and their measured PBM binding z-score.
Measured metric: PBM binding z-score

INSERT INTO results (seq, measured) VALUES
  ('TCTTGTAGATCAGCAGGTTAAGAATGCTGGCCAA', 0.12),
  ('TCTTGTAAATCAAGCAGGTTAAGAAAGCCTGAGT', 0.495),
  ('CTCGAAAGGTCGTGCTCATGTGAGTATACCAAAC', 4.13),
  ('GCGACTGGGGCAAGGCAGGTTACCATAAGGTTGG', 0.95),
  ('GCTAGTTGGTCAGTAAAAGATCACACACCGGTCG', 0.45),
  ('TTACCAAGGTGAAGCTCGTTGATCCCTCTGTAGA', 1.29),
  ('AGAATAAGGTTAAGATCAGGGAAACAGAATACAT', 2.46),
  ('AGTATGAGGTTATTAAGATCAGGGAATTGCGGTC', 1.4),
  ('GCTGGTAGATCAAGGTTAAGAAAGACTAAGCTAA', 0.949);

* * *

- Test system: PXR homodimer (NR concentration 270 nM)
- Assay summary: PBM binding z-score (relative to random genomic background probes); higher = stronger binding; sequences stand for … in GC…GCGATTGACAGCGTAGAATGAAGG
Measured metric: PBM binding z-score

INSERT INTO assay_data (seq, experimental_target, measured) VALUES
  ('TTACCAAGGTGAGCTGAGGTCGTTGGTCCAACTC', 'PXR homodimer (NR concentration 270 nM)', 0.529),
  ('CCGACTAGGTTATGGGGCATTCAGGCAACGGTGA', 'PXR homodimer (NR concentration 270 nM)', -0.0769),
  ('ACTAGTTGGTCAGCTGAGGTCACACATAATTCGG', 'PXR homodimer (NR concentration 270 nM)', 1.87),
  ('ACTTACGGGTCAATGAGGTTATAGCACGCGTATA', 'PXR homodimer (NR concentration 270 nM)', 2.68),
  ('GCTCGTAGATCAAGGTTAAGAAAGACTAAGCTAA', 'PXR homodimer (NR concentration 270 nM)', -0.272),
  ('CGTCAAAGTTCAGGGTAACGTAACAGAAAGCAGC', 'PXR homodimer (NR concentration 270 nM)', 1.67);
